meta.source: patent EP0540782B1

# ASSAY SYSTEM: UniProtKB Q02769
# Sequence (Q02769 1-416): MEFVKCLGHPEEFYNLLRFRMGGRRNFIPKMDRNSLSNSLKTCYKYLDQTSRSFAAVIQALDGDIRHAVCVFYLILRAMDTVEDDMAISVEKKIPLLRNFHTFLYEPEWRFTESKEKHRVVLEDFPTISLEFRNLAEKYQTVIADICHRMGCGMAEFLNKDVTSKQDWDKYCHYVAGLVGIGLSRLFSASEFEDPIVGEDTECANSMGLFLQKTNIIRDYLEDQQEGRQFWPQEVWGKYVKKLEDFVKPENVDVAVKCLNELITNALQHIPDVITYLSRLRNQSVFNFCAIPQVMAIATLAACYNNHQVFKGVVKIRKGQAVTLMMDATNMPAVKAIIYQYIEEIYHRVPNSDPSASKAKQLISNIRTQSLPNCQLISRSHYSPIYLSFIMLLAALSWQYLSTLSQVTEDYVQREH

{"COMPOUND": "CC(C)=CCCC(C)=CCCC(C)=CCCP(=O)(O)OP(=O)(O)O [compound 1, farnesylmethylphosphonophosphate]", "QUANTITY UNIT": "µM", "IC50": 480}
{"COMPOUND": "CC(C)=CCCC(C)=CCCC(C)=CCP(=O)(O)OP(=O)(O)O [compound 3, farnesylphosphonophosphate]", "QUANTITY UNIT": "µM", "IC50": 120}
